Data origin, for the record: patent US20220177604A1

This section presents binders with their documented pKd values.
- assay-target: T1, human immunoglobulin E (hIgE) (human, UniProt P01854-1 1-428)
- T1 construct: also called human IgE; Native IgE (Abcam)
- T1 sequence (P01854 whole entry): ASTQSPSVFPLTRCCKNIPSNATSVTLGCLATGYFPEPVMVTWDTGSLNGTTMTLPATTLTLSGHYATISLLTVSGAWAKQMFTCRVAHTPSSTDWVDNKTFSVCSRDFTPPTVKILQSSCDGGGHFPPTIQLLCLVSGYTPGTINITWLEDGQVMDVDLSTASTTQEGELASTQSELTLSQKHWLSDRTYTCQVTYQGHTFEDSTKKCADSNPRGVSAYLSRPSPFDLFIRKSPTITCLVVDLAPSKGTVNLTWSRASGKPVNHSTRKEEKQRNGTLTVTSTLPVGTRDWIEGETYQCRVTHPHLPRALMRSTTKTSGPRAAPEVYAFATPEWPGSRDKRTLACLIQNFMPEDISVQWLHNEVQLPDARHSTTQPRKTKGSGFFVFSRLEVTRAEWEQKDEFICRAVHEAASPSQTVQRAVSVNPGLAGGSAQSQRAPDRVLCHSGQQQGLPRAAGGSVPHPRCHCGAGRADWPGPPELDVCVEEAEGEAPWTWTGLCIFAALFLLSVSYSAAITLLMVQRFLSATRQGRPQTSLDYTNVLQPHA
- protocol-notes: SPR (Biacore), pH 6.0
# log scale: pKd equals minus log10 of the concentration in mol/L

See these solved cases before continuing.
OMA VH15 - VL3S31H (antibody, V domains shown) VH: EVQLVESGGGLVQPGGSLRLSCAVSGYSITSGHRWEWIRQAPGKGLEWVASIHYDGSTNYNPSVKGRITISRDDSKNTFYLQMNSLRAEDTAVYYCARATHYFGHWHFAVWGQGTLVTVSS VL: DIQLTQSPSSLSASVGDRVTITCRASQSVDYDGDHYMNWYQQKPGKAPKLLIEWGSYLRSGVPSRFSGSGSGTDFTLTISSLQPEDFATYYCQQNAEDPYTFGQGTKVEIK: 8.05
OmaVH15G55H - VL3D28H (antibody, V domains shown, also called OmaVH15G55H VL3D25H) VH: EVQLVESGGGLVQPGGSLRLSCAVSGYSITSGHRWEWIRQAPGKGLEWVASIHYDHSTNYNPSVKGRITISRDDSKNTFYLQMNSLRAEDTAVYYCARATHYFGHWHFAVWGQGTLVTVSS VL: DIQLTQSPSSLSASVGDRVTITCRASQSVDYHGDSYMNWYQQKPGKAPKLLIEWGSYLRSGVPSRFSGSGSGTDFTLTISSLQPEDFATYYCQQNAEDPYTFGQGTKVEIK: 8.36

Would you kindly look at the next entry?
Documented pKd of Oma VH15W100b - VL3 (antibody, V domains shown) VH: EVQLVESGGGLVQPGGSLRLSCAVSGYSITSGHRWEWIRQAPGKGLEWVASIHYDGSTNYNPSVKGRITISRDDSKNTFYLQMNSLRAEDTAVYYCARATHYFGHHHFAVWGQGTLVTVSS VL: DIQLTQSPSSLSASVGDRVTITCRASQSVDYDGDSYMNWYQQKPGKAPKLLIEWGSYLRSGVPSRFSGSGSGTDFTLTISSLQPEDFATYYCQQNAEDPYTFGQGTKVEIK : 7.53
